Species on record: Rattus norvegicus
Assay: Selectivity ratio of Ki for NET in Sprague-Dawley rat brain cortex membranes to Ki for DAT in Sprague-Dawley rat brain homogenates
Assay type: cell membranes
Conditions: Membrane
endpoint: Ratio Ki

input_smiles | test_value
CCCN1[C@@H]2CC[C@H]1C/C(=C/COC(c1ccc(F)cc1)c1ccc(F)cc1)C2 | 69
Fc1ccc(CN2[C@@H]3CC[C@H]2C/C(=C/COC(c2ccc(F)cc2)c2ccc(F)cc2)C3)cc1 | 643
Cc1ccc(CN2[C@@H]3CC[C@H]2C/C(=C/COC(c2ccccc2)c2ccccc2)C3)cc1 | 136
CCN1[C@@H]2CC[C@H]1C/C(=C/COC(c1ccc(F)cc1)c1ccc(F)cc1)C2 | 89
Cc1ccc(CN2[C@@H]3CC[C@H]2C/C(=C/COC(c2ccc(F)cc2)c2ccc(F)cc2)C3)cc1 | 450
Clc1ccc(CN2[C@@H]3CC[C@H]2C/C(=C/COC(c2ccccc2)c2ccccc2)C3)cc1 | 554
C=CCN1[C@@H]2CC[C@H]1C/C(=C/COC(c1ccc(F)cc1)c1ccc(F)cc1)C2 | 149
Fc1ccc(C(OC/C=C2\C[C@H]3CC[C@@H](C2)N3CC2CC2)c2ccc(F)cc2)cc1 | 625
Fc1ccc(C(OC/C=C2\C[C@H]3CC[C@@H](C2)N3Cc2ccc(Cl)cc2)c2ccc(F)cc2)cc1 | 1360
Fc1ccc(CN2[C@@H]3CC[C@H]2C/C(=C/COC(c2ccccc2)c2ccccc2)C3)cc1 | 477
C(/COC(c1ccccc1)c1ccccc1)=C1/C[C@H]2CC[C@@H](C1)N2Cc1ccccc1 | 29

###

pKi: −log10 of the molar value.
Transporter (Rattus norvegicus) data, read-out pKi
Sequence (Q63380 whole entry): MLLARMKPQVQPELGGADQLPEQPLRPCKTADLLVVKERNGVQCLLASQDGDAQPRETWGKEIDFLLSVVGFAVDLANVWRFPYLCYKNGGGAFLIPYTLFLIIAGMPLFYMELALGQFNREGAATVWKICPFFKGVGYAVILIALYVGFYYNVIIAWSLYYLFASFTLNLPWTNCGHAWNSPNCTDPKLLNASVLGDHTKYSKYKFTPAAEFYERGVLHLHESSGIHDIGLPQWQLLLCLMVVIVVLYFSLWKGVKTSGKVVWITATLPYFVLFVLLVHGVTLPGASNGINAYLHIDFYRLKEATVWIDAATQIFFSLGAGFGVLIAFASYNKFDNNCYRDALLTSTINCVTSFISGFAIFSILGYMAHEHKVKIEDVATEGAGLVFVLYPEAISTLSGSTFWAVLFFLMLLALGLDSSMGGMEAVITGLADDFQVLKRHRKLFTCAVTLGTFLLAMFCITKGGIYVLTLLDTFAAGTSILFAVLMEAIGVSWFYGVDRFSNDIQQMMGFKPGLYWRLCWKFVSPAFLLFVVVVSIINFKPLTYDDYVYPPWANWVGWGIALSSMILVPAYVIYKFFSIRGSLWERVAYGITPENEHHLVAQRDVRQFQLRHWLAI

input_smiles | pKi
Fc1ccc(C(OC/C=C2\C[C@H]3CC[C@@H](C2)N3CC2CC2)c2ccc(F)cc2)cc1 | 5.60
Clc1ccc(CN2[C@@H]3CC[C@H]2C/C(=C/COC(c2ccccc2)c2ccccc2)C3)cc1 | 5.57
C(/COC(c1ccccc1)c1ccccc1)=C1/C[C@H]2CC[C@@H](C1)N2Cc1ccccc1 | 5.86

###

pKi: −log10 of the molar value.
Sodium-dependent dopamine transporter (Rattus norvegicus, UniProt P23977) data, read-out pKi
Sequence (P23977 whole entry): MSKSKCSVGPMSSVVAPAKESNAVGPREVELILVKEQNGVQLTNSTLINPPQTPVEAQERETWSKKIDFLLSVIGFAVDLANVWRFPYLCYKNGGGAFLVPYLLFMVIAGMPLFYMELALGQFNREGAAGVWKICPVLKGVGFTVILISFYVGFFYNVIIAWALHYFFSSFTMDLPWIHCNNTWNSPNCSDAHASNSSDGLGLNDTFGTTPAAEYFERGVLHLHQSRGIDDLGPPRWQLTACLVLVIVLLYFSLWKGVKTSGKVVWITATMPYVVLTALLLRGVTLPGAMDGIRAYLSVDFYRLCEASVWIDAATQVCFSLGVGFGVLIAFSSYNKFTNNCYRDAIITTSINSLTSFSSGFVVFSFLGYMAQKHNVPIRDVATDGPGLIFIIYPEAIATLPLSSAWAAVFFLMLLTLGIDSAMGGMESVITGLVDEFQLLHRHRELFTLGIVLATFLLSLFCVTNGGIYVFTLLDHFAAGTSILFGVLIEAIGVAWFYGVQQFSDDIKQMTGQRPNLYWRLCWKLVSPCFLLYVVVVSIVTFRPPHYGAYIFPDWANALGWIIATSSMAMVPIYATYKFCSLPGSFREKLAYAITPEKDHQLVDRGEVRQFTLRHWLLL

input_smiles | pKi
Cc1ccc(CN2[C@@H]3CC[C@H]2C/C(=C/COC(c2ccccc2)c2ccccc2)C3)cc1 | 7.89
CCCN1[C@@H]2CC[C@H]1C/C(=C/COC(c1ccc(F)cc1)c1ccc(F)cc1)C2 | 7.39
C=CCN1[C@@H]2CC[C@H]1C/C(=C/COC(c1ccc(F)cc1)c1ccc(F)cc1)C2 | 7.68
CN1[C@@H]2CC[C@H]1C/C(=C/COC(c1ccc(F)cc1)c1ccc(F)cc1)C2 | 7.72
C(/COC(c1ccccc1)c1ccccc1)=C1/C[C@H]2CC[C@@H](C1)N2Cc1ccccc1 | 7.32
C(/COC(c1ccccc1)c1ccccc1)=C1/C[C@H]2CC[C@@H](C1)N2CC1CC1 | 6.77
CCN1[C@@H]2CC[C@H]1C/C(=C/COC(c1ccccc1)c1ccccc1)C2 | 6.54
CCCN1[C@@H]2CC[C@H]1C/C(=C/COC(c1ccccc1)c1ccccc1)C2 | 6.61
Fc1ccc(C(OC/C=C2\C[C@H]3CC[C@@H](C2)N3Cc2ccc(Cl)cc2)c2ccc(F)cc2)cc1 | 8.41
C#CCN1[C@@H]2CC[C@H]1C/C(=C/COC(c1ccccc1)c1ccccc1)C2 | 6.27

###

Target: Sodium-dependent serotonin transporter (Rattus norvegicus, UniProt P31652)
Sequence (P31652 whole entry): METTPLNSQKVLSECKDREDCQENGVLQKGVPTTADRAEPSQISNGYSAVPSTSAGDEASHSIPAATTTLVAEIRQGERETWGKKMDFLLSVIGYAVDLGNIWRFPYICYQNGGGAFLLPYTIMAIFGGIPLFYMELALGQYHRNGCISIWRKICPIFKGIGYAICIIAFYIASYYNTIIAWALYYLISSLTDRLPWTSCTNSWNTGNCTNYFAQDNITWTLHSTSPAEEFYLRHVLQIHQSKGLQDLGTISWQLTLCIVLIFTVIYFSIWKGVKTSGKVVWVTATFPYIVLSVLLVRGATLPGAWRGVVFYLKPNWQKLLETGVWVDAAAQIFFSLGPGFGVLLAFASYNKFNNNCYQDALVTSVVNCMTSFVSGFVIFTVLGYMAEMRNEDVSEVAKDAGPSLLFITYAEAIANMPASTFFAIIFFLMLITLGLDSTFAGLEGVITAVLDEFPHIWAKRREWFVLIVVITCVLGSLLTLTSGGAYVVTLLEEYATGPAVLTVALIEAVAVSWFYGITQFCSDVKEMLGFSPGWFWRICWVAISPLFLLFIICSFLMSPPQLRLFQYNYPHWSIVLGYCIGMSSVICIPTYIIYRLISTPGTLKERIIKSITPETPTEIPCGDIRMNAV
Under this convention, true denotes Ki strictly below 1 µM and false denotes Ki at or above 1 µM.

input_smiles | assigned_class
CCN1[C@@H]2CC[C@H]1C/C(=C/COC(c1ccc(F)cc1)c1ccc(F)cc1)C2 | false
Fc1ccc(C(OC/C=C2\C[C@H]3CC[C@@H](C2)N3Cc2ccc(Cl)cc2)c2ccc(F)cc2)cc1 | true
Fc1ccc(CN2[C@@H]3CC[C@H]2C/C(=C/COC(c2ccc(F)cc2)c2ccc(F)cc2)C3)cc1 | false
CCCN1[C@@H]2CC[C@H]1C/C(=C/COC(c1ccc(F)cc1)c1ccc(F)cc1)C2 | false
Cc1ccc(CN2[C@@H]3CC[C@H]2C/C(=C/COC(c2ccc(F)cc2)c2ccc(F)cc2)C3)cc1 | true
C(/COC(c1ccccc1)c1ccccc1)=C1/C[C@H]2CC[C@@H](C1)N2Cc1ccccc1 | false
Clc1ccc(CN2[C@@H]3CC[C@H]2C/C(=C/COC(c2ccccc2)c2ccccc2)C3)cc1 | true
Fc1ccc(C(OC/C=C2\C[C@H]3CC[C@@H](C2)N3CC2CC2)c2ccc(F)cc2)cc1 | false
C=CCN1[C@@H]2CC[C@H]1C/C(=C/COC(c1ccc(F)cc1)c1ccc(F)cc1)C2 | false
Fc1ccc(C(OC/C=C2\C[C@H]3CC[C@@H](C2)N3Cc2ccccc2)c2ccc(F)cc2)cc1 | false
Fc1ccc(CN2[C@@H]3CC[C@H]2C/C(=C/COC(c2ccccc2)c2ccccc2)C3)cc1 | false
Cc1ccc(CN2[C@@H]3CC[C@H]2C/C(=C/COC(c2ccccc2)c2ccccc2)C3)cc1 | true

###

Species on record: Rattus norvegicus
Experiment: Selectivity ratio of Ki for SERT in Sprague-Dawley rat brain homogenates to Ki for DAT in Sprague-Dawley rat brain homogenates
Assay type: tissue-based
Recorded Ratio Ki values for a group of compounds are listed next.
endpoint: Ratio Ki

input_smiles | test_value
CCCN1[C@@H]2CC[C@H]1C/C(=C/COC(c1ccc(F)cc1)c1ccc(F)cc1)C2 | 133
Fc1ccc(C(OC/C=C2\C[C@H]3CC[C@@H](C2)N3CC2CC2)c2ccc(F)cc2)cc1 | 1060
Clc1ccc(CN2[C@@H]3CC[C@H]2C/C(=C/COC(c2ccccc2)c2ccccc2)C3)cc1 | 72
C=CCN1[C@@H]2CC[C@H]1C/C(=C/COC(c1ccc(F)cc1)c1ccc(F)cc1)C2 | 167
Fc1ccc(C(OC/C=C2\C[C@H]3CC[C@@H](C2)N3Cc2ccc(Cl)cc2)c2ccc(F)cc2)cc1 | 168
CCN1[C@@H]2CC[C@H]1C/C(=C/COC(c1ccc(F)cc1)c1ccc(F)cc1)C2 | 149
Fc1ccc(CN2[C@@H]3CC[C@H]2C/C(=C/COC(c2ccccc2)c2ccccc2)C3)cc1 | 585
Cc1ccc(CN2[C@@H]3CC[C@H]2C/C(=C/COC(c2ccc(F)cc2)c2ccc(F)cc2)C3)cc1 | 68
Fc1ccc(CN2[C@@H]3CC[C@H]2C/C(=C/COC(c2ccc(F)cc2)c2ccc(F)cc2)C3)cc1 | 234
Cc1ccc(CN2[C@@H]3CC[C@H]2C/C(=C/COC(c2ccccc2)c2ccccc2)C3)cc1 | 57
C(/COC(c1ccccc1)c1ccccc1)=C1/C[C@H]2CC[C@@H](C1)N2Cc1ccccc1 | 113

###

Transporter (Rattus norvegicus) data, read-out Ki

input_smiles | Ki
CCN1[C@@H]2CC[C@H]1C/C(=C/COC(c1ccc(F)cc1)c1ccc(F)cc1)C2 | 3.58 µM
Cc1ccc(CN2[C@@H]3CC[C@H]2C/C(=C/COC(c2ccc(F)cc2)c2ccc(F)cc2)C3)cc1 | 2.75 µM
C=CCN1[C@@H]2CC[C@H]1C/C(=C/COC(c1ccc(F)cc1)c1ccc(F)cc1)C2 | 3.12 µM
Fc1ccc(CN2[C@@H]3CC[C@H]2C/C(=C/COC(c2ccc(F)cc2)c2ccc(F)cc2)C3)cc1 | 3.15 µM
Fc1ccc(CN2[C@@H]3CC[C@H]2C/C(=C/COC(c2ccccc2)c2ccccc2)C3)cc1 | 3.34 µM
CCCN1[C@@H]2CC[C@H]1C/C(=C/COC(c1ccc(F)cc1)c1ccc(F)cc1)C2 | 2.85 µM
Fc1ccc(C(OC/C=C2\C[C@H]3CC[C@@H](C2)N3Cc2ccc(Cl)cc2)c2ccc(F)cc2)cc1 | 5.3 µM
Cc1ccc(CN2[C@@H]3CC[C@H]2C/C(=C/COC(c2ccccc2)c2ccccc2)C3)cc1 | 1.77 µM

###

Sodium-dependent dopamine transporter (Rattus norvegicus) data, read-out Ki
endpoint: Ki (nM)

input_smiles | unit_name | test_value
Clc1ccc(CN2[C@@H]3CC[C@H]2C/C(=C/COC(c2ccccc2)c2ccccc2)C3)cc1 | nM | 7.6
Fc1ccc(CN2[C@@H]3CC[C@H]2C/C(=C/COC(c2ccccc2)c2ccccc2)C3)cc1 | nM | 7
Cc1ccc(CN2[C@@H]3CC[C@H]2C/C(=C/COC(c2ccc(F)cc2)c2ccc(F)cc2)C3)cc1 | nM | 6.1
